STUDY_TARGET: Lp-PLA2 in human plasma (Homo sapiens)
Construct: from tissue; host or cells: pooled human plasma
PROTOCOL_DETAILS: Lp-PLA2 human plasma assay (Thio-PAF assay)
Format: biochemical
EXPERIMENTAL_CONDITIONS: pooled human plasma; read-out: pIC50 values in the thio-PAF assay (converted)

MOLECULE	IC50
CN1c2cc(OCc3cc(F)c(Oc4ccnc(C(F)(F)F)c4)c(F)c3)nc(=O)n2CCC1(C)C	≤ 10 nM
CC1CCn2c(cc(OCc3ccc(Oc4ccc(C(F)(F)F)nc4)c(F)c3)nc2=O)N1 (stereo not shown) [E1]	≤ 100 nM
C[C@H]1CCn2c(cc(OCc3ccc(Oc4cccc(F)c4)c(C#N)c3)nc2=O)N1C	≤ 10 nM
C[C@@H]1CCn2c(cc(OCc3ccc(Oc4cnc(C(F)(F)F)nc4)c(F)c3)nc2=O)N1C	≤ 100 nM
CN1c2cc(OCc3ccc(Oc4ccc(F)c(C(F)(F)F)c4)c(C#N)c3)nc(=O)n2CCC1(C)C	≤ 10 nM
C[C@H]1CCn2c(cc(OCc3cc(F)c(Oc4ccc(F)c(Cl)c4)c(F)c3)nc2=O)N1C	≤ 100 nM
CCN1c2cc(OCc3cc(F)c(F)cc3F)nc(=O)n2CC[C@@H]1C	≤ 100 nM
CC1CCn2c(cc(OCc3ccc(F)c(F)c3)nc2=O)N1 (stereo not shown)	≤ 100 nM
C[C@@H]1CCn2c(cc(OCc3ccc(Oc4ccnc(C(F)(F)F)c4)c(F)c3)nc2=O)N1C	≤ 10 nM
[2H]C([2H])(Oc1cc2n(c(=O)n1)CC[C@H](C)N2C)c1cc(F)c(F)c(F)c1	≤ 100 nM
C[C@@H]1CCn2c(cc(OCc3ccc(Oc4cncc(C(F)(F)F)c4)c(F)c3)nc2=O)N1C	≤ 10 nM
CN1c2cc(OCc3ccc(Oc4ccc(F)c(F)c4)c(C#N)c3)nc(=O)n2CCC1(C)C	≤ 10 nM
CC1CCn2c(cc(OCc3cccc(C#N)c3)nc2=O)N1C (stereo not shown)	≤ 100 nM
C[C@@H]1CCn2c(cc(OCc3cc(F)c(Oc4ccc(Cl)c(F)c4)c(F)c3)nc2=O)N1C	≤ 10 nM
C[C@H]1CCn2c(cc(OCc3ccc(Oc4cccc(C(F)(F)F)c4)c(C#N)c3)nc2=O)N1C	≤ 10 nM
C[C@@H]1CCn2c(cc(OCc3ccc(Oc4ccc(C(F)(F)F)nc4)c(C#N)c3)nc2=O)N1C	≤ 10 nM
CC(C)N1c2cc(OCc3cccc(F)c3F)nc(=O)n2CC[C@@H]1C	≤ 100 nM
C[C@H]1CCn2c(cc(OCc3cc(F)c(Oc4ccc(C(F)(F)F)nc4)c(F)c3)nc2=O)N1C	≤ 10 nM
CC(C)N1c2cc(OCc3cc(F)c(F)c(F)c3)nc(=O)n2CC[C@@H]1C	≤ 100 nM

---

Form field: IC50 (one value per entry).
STUDY_TARGET: Lp-PLA2 in human plasma (Homo sapiens, UniProt Q13093)
Construct: from tissue; host or cells: pooled human plasma
Sequence (Q13093 22-441): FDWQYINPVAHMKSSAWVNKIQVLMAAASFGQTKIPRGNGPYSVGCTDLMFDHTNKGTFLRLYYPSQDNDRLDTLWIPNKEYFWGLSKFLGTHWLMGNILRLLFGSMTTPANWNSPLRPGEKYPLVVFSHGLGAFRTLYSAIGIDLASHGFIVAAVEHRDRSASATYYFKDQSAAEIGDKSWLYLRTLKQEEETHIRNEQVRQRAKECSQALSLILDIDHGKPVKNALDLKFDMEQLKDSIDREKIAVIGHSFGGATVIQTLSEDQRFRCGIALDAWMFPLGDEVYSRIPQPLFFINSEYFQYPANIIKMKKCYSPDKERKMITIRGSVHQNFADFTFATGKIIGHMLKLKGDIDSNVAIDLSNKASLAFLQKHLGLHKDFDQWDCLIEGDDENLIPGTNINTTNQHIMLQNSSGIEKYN
PROTOCOL_DETAILS: Lp-PLA2 human plasma assay (Thio-PAF assay)
Format: biochemical
EXPERIMENTAL_CONDITIONS: pooled human plasma; read-out: pIC50 values in the thio-PAF assay (converted)
MEASURED_ENDPOINT: IC50

COMPOUND	OBSERVED_RESULT
C[C@@H]1CCn2c(cc(OCc3ccc(Oc4ccc(F)c(F)c4)c(C#N)c3)nc2=O)N1C	≤ 0.01 µM
CN1c2cc(OCc3cc(F)cc(F)c3)nc(=O)n2CCC1(C)C	≤ 0.1 µM
C[C@H]1CCn2c(cc(OCc3ccc(Oc4ccnc(C(F)(F)F)c4)c(F)c3)nc2=O)N1C	≤ 0.01 µM
C[C@@H]1CCn2c(cc(OCc3ccc(Oc4ccc(F)c(C(F)(F)F)c4)cc3)nc2=O)N1C	≤ 0.01 µM
C[C@@H]1CCn2c(cc(OCc3ccc(Oc4cccc(C(F)(F)F)c4)c(F)c3)nc2=O)N1C	≤ 0.1 µM
CN1c2cc(OCc3ccc(Oc4ccc(F)cc4)c(C#N)c3)nc(=O)n2CCC1(C)C	≤ 0.1 µM
C[C@@H]1CCn2c(cc(OCc3cc(F)c(Oc4ccc(F)c(Cl)c4)c(F)c3)nc2=O)N1C	≤ 0.01 µM
CC1CCn2c(cc(OCc3ccc(F)c(F)c3)nc2=O)N1C (stereo not drawn)	≤ 0.1 µM
C[C@H]1CCn2c(cc(OCc3ccc(Oc4ccc(C(F)(F)F)c(F)c4)cc3)nc2=O)N1C	≤ 0.1 µM

---

STUDY_TARGET: recombinant human Lp-PLA2 (Homo sapiens, UniProt Q13093)
PROTOCOL_DETAILS: Recombinant human Lp-PLA2 assay (rhLp-PLA2, PED6 assay)
Format: biochemical
EXPERIMENTAL_CONDITIONS: read-out: pIC50 values in the recombinant human Lp-PLA2 assay (converted)

MOLECULE	IC50
CN1c2cc(OCc3ccc(F)cc3)nc(=O)n2CCC1(C)C [E135]	≤ 1 nM
CC1CCn2c(cc(OCc3ccc(Oc4ccc(Cl)c(F)c4)c(C#N)c3)nc2=O)N1 (stereo not drawn) [E6]	≤ 1 nM
C[C@H]1CCn2c(cc(OCc3cc(F)c(Oc4cnc(C(F)(F)F)nc4)c(F)c3)nc2=O)N1C [E104]	≤ 1 nM
C[C@@H]1CCn2c(cc(OCc3ccc(Oc4ccc(F)cc4)c(C#N)c3)nc2=O)N1C [E125]	≤ 1 nM
CN1c2cc(OCc3ccc(Oc4ccc(F)cc4)c(C#N)c3)nc(=O)n2CCC1(C)C [E118]	≤ 1 nM
CC(C)Oc1c(F)cc(COc2cc3n(c(=O)n2)CC[C@@H](C)N3C)cc1F [E82]	≤ 1 nM
C[C@@H]1CCn2c(cc(OCc3cc(F)c(Oc4cccc(F)c4)c(F)c3)nc2=O)N1C [E103]	≤ 1 nM
C[C@@H]1CCn2c(cc(OCc3ccc(Oc4ccc(C(F)(F)F)c(F)c4)cc3)nc2=O)N1C [E108]	≤ 1 nM
C[C@H]1CCn2c(cc(OCc3cc(F)c(Oc4ccc(F)c(F)c4)c(F)c3)nc2=O)N1C [E90]	≤ 1 nM

---

Form field: IC50 (one value per entry).
STUDY_TARGET: Lp-PLA2 in human plasma (Homo sapiens, UniProt Q13093)
Construct: from tissue; host or cells: pooled human plasma
PROTOCOL_DETAILS: Lp-PLA2 human plasma assay (Thio-PAF assay)
Assay type: biochemical
EXPERIMENTAL_CONDITIONS: pooled human plasma; read-out: pIC50 values in the thio-PAF assay (converted)
MEASURED_ENDPOINT: IC50

COMPOUND	OBSERVED_RESULT
C[C@H]1CCn2c(cc(OCc3cc(F)c(F)cc3F)nc2=O)N1C [E42]	≤ 100 nM
[2H]C([2H])(Oc1cc2n(c(=O)n1)CCC(C)(C)N2C)c1cc(F)c(F)c(F)c1 [E55]	≤ 100 nM
[2H]C([2H])(Oc1cc2n(c(=O)n1)CC[C@H](C)N2C)c1cc(F)cc(F)c1 [E49]	≤ 100 nM
C[C@H]1CCn2c(cc(OCc3cc(F)c(F)c(F)c3)nc2=O)N1 [E45]	≤ 10 nM
C[C@H]1CCn2c(cc(OCc3ccc(Oc4ccc(F)c(Cl)c4)c(C#N)c3)nc2=O)N1C [E85]	≤ 10 nM
CN1c2cc(OCc3ccc(Oc4cccc(F)c4)c(C#N)c3)nc(=O)n2CCC1(C)C [E117]	≤ 100 nM
C[C@H]1CCn2c(cc(OCc3ccc(Oc4ccc(Cl)c(F)c4)c(C#N)c3)nc2=O)N1C [E66]	≤ 10 nM
CN1c2cc(OCc3cc(F)c(Oc4ccc(C(F)(F)F)nc4)c(F)c3)nc(=O)n2CCC1(C)C [E88]	≤ 100 nM
C[C@H]1CCn2c(cc(OCc3cc(F)c(Oc4ccc(F)cc4)c(F)c3)nc2=O)N1C [E94]	≤ 100 nM

---

STUDY_TARGET: Lp-PLA2 in human plasma (Homo sapiens)
Construct: from tissue; host or cells: pooled human plasma
Sequence (Q13093 22-441): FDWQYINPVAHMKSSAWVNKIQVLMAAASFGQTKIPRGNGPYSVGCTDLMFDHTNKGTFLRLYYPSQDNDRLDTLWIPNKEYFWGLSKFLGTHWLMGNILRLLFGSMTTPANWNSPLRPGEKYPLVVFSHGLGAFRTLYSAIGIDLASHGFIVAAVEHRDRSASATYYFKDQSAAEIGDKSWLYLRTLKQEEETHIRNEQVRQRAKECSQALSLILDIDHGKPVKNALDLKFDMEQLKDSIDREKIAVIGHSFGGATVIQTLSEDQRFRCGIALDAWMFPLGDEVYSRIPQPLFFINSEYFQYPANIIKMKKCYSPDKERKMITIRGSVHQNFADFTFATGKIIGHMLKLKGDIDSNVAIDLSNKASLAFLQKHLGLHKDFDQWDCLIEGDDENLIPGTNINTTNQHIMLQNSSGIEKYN
PROTOCOL_DETAILS: Lp-PLA2 human plasma assay (Thio-PAF assay)
Assay type: biochemical
EXPERIMENTAL_CONDITIONS: pooled human plasma; read-out: pIC50 values in the thio-PAF assay (converted)
Form field: IC50 (one value per entry).

COMPOUND	IC50
CN1c2cc(OCc3cccc(C#N)c3)nc(=O)n2CCC1(C)C	≤ 10 nM
C[C@H]1CCn2c(cc(OCc3cc(F)c(Oc4cncc(C(F)(F)F)c4)c(F)c3)nc2=O)N1C	≤ 10 nM
C[C@@H]1CCn2c(cc(OCc3cc(F)c(Oc4cccc(Cl)c4)c(F)c3)nc2=O)N1C	≤ 10 nM
CC1CCn2c(cc(OCc3ccc(F)cc3)nc2=O)N1C (stereo not drawn)	≤ 100 nM
C[C@@H]1CCn2c(cc(OCc3ccc(Oc4ccc(Cl)c(F)c4)c(C#N)c3)nc2=O)N1C	≤ 100 nM
C[C@H]1CCn2c(cc(OCc3ccc(Oc4ccc(C(F)(F)F)nc4)c(F)c3)nc2=O)N1C	≤ 10 nM
CCN1c2cc(OCc3cc(F)c(F)c(F)c3)nc(=O)n2CC[C@@H]1C	≤ 10 nM
C[C@@H]1CCn2c(cc(OCc3cc(F)c(Oc4cnc(C(F)(F)F)nc4)c(F)c3)nc2=O)N1C	≤ 10 nM
C[C@H]1CCn2c(cc(OCc3ccc(Oc4ccc(F)c(C(F)(F)F)c4)cc3)nc2=O)N1C	≤ 10 nM
